# Study System: human c-KIT (Thr544-Val976) (Homo sapiens, UniProt P10721)
# Construct: human c-KIT (Thr544-Val976); GST (N); purchased Cell Signaling Technology; host or cells: baculovirus expression system
# Sequence (P10721 544-976): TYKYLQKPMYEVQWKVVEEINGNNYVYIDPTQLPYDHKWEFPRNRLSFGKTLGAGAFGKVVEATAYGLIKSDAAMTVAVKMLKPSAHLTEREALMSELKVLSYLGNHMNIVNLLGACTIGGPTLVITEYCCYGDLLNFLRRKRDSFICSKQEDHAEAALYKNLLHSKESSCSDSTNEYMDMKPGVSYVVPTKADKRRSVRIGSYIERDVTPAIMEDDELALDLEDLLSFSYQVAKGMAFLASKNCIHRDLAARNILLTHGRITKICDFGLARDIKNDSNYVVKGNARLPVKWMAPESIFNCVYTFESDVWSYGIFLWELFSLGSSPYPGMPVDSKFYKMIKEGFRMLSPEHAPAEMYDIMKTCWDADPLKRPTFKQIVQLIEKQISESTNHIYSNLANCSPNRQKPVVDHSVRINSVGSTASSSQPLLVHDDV
# Protocol Description: c-KIT kinase assay (HTScan kit, DELFIA)
# Assay type: biochemical
# Conditions: compound at 0.1 μM; read-out: c-KIT 0.1 μM, % of inhibition relative to control
inhibition at 0.1 µM reference
Please report the result as a number followed by the unit.

Structure Smiles String: O=C1Nc2ccc(F)cc2/C1=C/c1cc2cccccc-2c1
Study System: human c-KIT (Thr544-Val976) (Homo sapiens, UniProt P10721)
inhibition at 0.1 µM: 76.6%
//
Structure Smiles String: O=C1Nc2ccc(Cl)cc2/C1=C\c1ccc2cccccc1-2
Study System: human c-KIT (Thr544-Val976) (Homo sapiens, UniProt P10721)
inhibition at 0.1 µM: 16.6%
//
Structure Smiles String: O=C1Nc2c(Cl)cccc2/C1=C/c1ccc2cccccc1-2
Study System: human c-KIT (Thr544-Val976) (Homo sapiens, UniProt P10721)
inhibition at 0.1 µM: 8.3%

Let's switch to this molecule now.
Short answer for `O=C1Nc2ccccc2/C1=C\c1ccc2cccccc1-2` : inhibition at 0.1 µM was 0.6%

Just for reference, patent US7714146B2 is where these values come from.
